# System Name: GafASw (Shewana3_2073)
# Test Protocol: crystal structure ([…] Å), ITC, intrinsic fluorescence, DSF
# Type: binding, Shewanella sp. ANA-3
Readout Kind: Kd (µM)
Numeric answer only, unit µM assumed.

// sample OC[C@@H]1OC(O)[C@H](O)[C@H]1O (stereo partly shown) , its Kd was 5.8

###

# System Name: GafASw (Shewana3_2073)
# Test Protocol: ITC, intrinsic fluorescence ([…]), DSF
# Type: binding, Shewanella sp. ANA-3
Readout Kind: pKd
Conceptually, pKd converts a concentration in mol/L into minus its log10.

Field pKd (GafASw (Shewana3_2073)), entry OC[C@H]1OC(O)[C@H](O)[C@H](O)[C@@H]1O (stereo partly shown) : 4.56

Reference source: paper PMC10191376
